# test-name: Lipophilicity log k by RP-HPLC
# reported-conditions: RP-HPLC capacity factor, C18, MeOH 70%/H2O 30%, 30 °C
// reported log k for each item listed
measurement-label: log k

| molecule | reported-result |
| --- | --- |
| Cc1nc(C#N)c(C#N)nc1NCc1ccccc1 [Compound 6] | 0.2994 |
| Cc1nc(C#N)c(C#N)nc1NCc1ccc(C(F)(F)F)cc1 [Compound 11] | 0.5626 |
| Cc1nc(C#N)c(C#N)nc1NCc1ccc(N)cc1 [Compound 7] | −0.2014 |
| COc1ccc(CNc2nc(C#N)c(C#N)nc2C)cc1 [Compound 5] | 0.2820 |
| Cc1nc(C#N)c(C#N)nc1NCc1ccccc1F [Compound 10] | 0.3042 |
| Cc1nc(C#N)c(C#N)nc1NCc1ccccc1Cl [Compound 9] | 0.4663 |
| Cc1ccc(CNc2nc(C#N)c(C#N)nc2C)cc1 [Compound 4] | 0.5157 |
| COc1ccc(CNc2nc(C#N)c(C#N)nc2C)c(OC)c1 [Compound 13] | 0.3699 |
| Cc1nc(C#N)c(C#N)nc1NCc1ccccc1C(F)(F)F [Compound 12] | 0.4865 |
| Cc1ccccc1CNc1nc(C#N)c(C#N)nc1C [Compound 1] | 0.4668 |
